src = patent US10849893B2

Assay: clinical
Details: human, plasma, po, 225 mg/m2
metric: Tmax (min)
Answers are plain numbers, in min.

**Q:** Suppose we examine the compound `CC(=O)O[C@@]12CO[C@@H]1C[C@H](O)[C@@]1(C)C(=O)[C@H](O)C3=C(C)[C@@H](OC(=O)[C@H](O)[C@@H](NC(=O)OC(C)(C)C)c4ccccc4)C[C@@](O)([C@@H](OC(=O)c4ccccc4)[C@H]21)C3(C)C` ; what Tmax value has been reported?
**A:** 30

---

Assay: clinical
Settings: male, human, in vivo, po, 75 mg/m2, Reported half-life
metric: half-life (h)
One number for each entry, in h.

**Q:** Suppose we examine the molecule CC(=O)O[C@@]12CO[C@@H]1C[C@H](O)[C@@]1(C)C(=O)[C@H](O)C3=C(C)[C@@H](OC(=O)[C@H](O)[C@@H](NC(=O)OC(C)(C)C)c4ccccc4)C[C@@](O)([C@@H](OC(=O)c4ccccc4)[C@H]21)C3(C)C [docetaxel] ; what half-life value has been reported?
**A:** 16.4

---

Experiment: clinical
Conditions: human, plasma, po, 75 mg/m2, t1/2, oral 75 mg/m^2 with Compound A; mean
metric: half-life

**Q:** Suppose we examine the molecule `CC(=O)O[C@@]12CO[C@@H]1C[C@H](O)[C@@]1(C)C(=O)[C@H](O)C3=C(C)[C@@H](OC(=O)[C@H](O)[C@@H](NC(=O)OC(C)(C)C)c4ccccc4)C[C@@](O)([C@@H](OC(=O)c4ccccc4)[C@H]21)C3(C)C` ; what half-life value has been reported?
**A:** 53.1 h

---

Test: clinical
Settings: human, plasma, po, 150 mg/m2, Cmax, oral 150 mg/m^2 with Compound A; individual subjects
metric: Cmax

**Q:** Suppose we examine the molecule CC(=O)O[C@@]12CO[C@@H]1C[C@H](O)[C@@]1(C)C(=O)[C@H](O)C3=C(C)[C@@H](OC(=O)[C@H](O)[C@@H](NC(=O)OC(C)(C)C)c4ccccc4)C[C@@](O)([C@@H](OC(=O)c4ccccc4)[C@H]21)C3(C)C [docetaxel] ; what Cmax value has been reported?
**A:** 112 to 136 ng/mL

---

Assay: clinical
Conditions: human, plasma, po, 225 mg/m^2, Analyte Concentration, oral 225 mg/m^2, cohort 4; time 1.00 hr; individual subjects
metric: concentration at 1 hr (ng/mL)
Numbers only, in ng/mL.

**Q:** Suppose we examine the molecule `CC(=O)O[C@@]12CO[C@@H]1C[C@H](O)[C@@]1(C)C(=O)[C@H](O)C3=C(C)[C@@H](OC(=O)[C@H](O)[C@@H](NC(=O)OC(C)(C)C)c4ccccc4)C[C@@](O)([C@@H](OC(=O)c4ccccc4)[C@H]21)C3(C)C` ; what concentration at 1 hr value has been reported?
**A:** 55.6

---

Experiment: Two phase 1 studies of docetaxel capsules administered orally in combination with HM30181A
Assay type: in vivo, human
Settings: human, plasma; oral 75 mg/m^2 with HM30181A 15 mg; read-out: Individual F %
metric: bioavailability

**Q:** Suppose we examine the molecule CC(=O)O[C@@]12CO[C@@H]1C[C@H](O)[C@@]1(C)C(=O)[C@H](O)C3=C(C)[C@@H](OC(=O)[C@H](O)[C@@H](NC(=O)OC(C)(C)C)c4ccccc4)C[C@@](O)([C@@H](OC(=O)c4ccccc4)[C@H]21)C3(C)C [docetaxel] ; what bioavailability value has been reported?
**A:** 20 to 31%
